Recorded values, source patent US6710047B2.

Please go through the items and note down their melting point.

compound	melting point
Cc1ccc(Nc2nnc(Cc3ccncc3)c3ccccc23)cc1F [Example 44C]	210 to 212 °C
COc1ccc(Nc2nnc(Cc3ccncc3)c3ccc(NC(C)=O)cc23)cc1.Cl	160 to 163 °C
[O-][n+]1nc(Nc2ccc(Cl)cc2)c2ccccc2c1Cc1ccncc1 [Example 55]	226 to 228 °C
c1ccc(-c2ccc(Nc3nnc(Cc4ccncc4)c4ccccc34)cc2)cc1	189 to 191 °C
CSc1cccc(Nc2nnc(Cc3ccncc3)c3ccccc23)c1 [Example 67D]	148 to 149 °C

Here are 4 compounds. What values of melting point were reported for them?
1. Clc1ccc(Nc2nnc(Cc3ccncc3)c3ccccc23)cc1Cl [Example 21]
2. Clc1ccc(Nc2nnc(Cc3ccncc3)c3cnccc23)cc1 [Example 75]
3. Clc1ccc(Nc2nnc(Cc3ccncn3)c3ccccc23)cc1 [Example 66]
4. Clc1ccc(Nc2nnc(Cc3ccncc3)c3ccncc23)cc1 [Example 76]

Out:
["249 to 250 °C", "227 to 228 °C", "174 to 176 °C", "220 to 221 °C"]

Here are 3 compounds. What values of melting point were reported for them?
1. Clc1ccc(Oc2nnc(Cc3ccncc3)c3ccccc23)cc1 [Example 72B]
2. Fc1ccc(Nc2nnc(Cc3ccncc3)c3ccccc23)cc1 [Example 17]
3. COc1cccc(Nc2nnc(Cc3ccncc3)c3ccc(NC(C)=O)cc23)c1.Cl

Out:
207 to 208 °C
129 to 131 °C
156 to 159 °C

###

Counter-ions that a name gives are not always drawn.
Please go through the items and note down their melting point.

Here are 4 compounds. What values of melting point were reported for them?
1. c1ccc2c(NC3CCCC3)nnc(Cc3ccncc3)c2c1
2. FC(F)(F)c1ccc(Nc2nnc(Cc3ccncc3)c3ccccc23)cc1
3. Cc1cc(C)cc(Nc2nnc(Cc3ccncc3)c3ccccc23)c1
4. CCOc1ccc(Nc2nnc(Cc3ccncc3)c3ccccc23)cc1 [Example 44E]

Out:
1. 163 to 165 °C
2. 205 to 206 °C
3. 174 to 175 °C
4. 223 to 224 °C

Here are 4 compounds. What values of melting point were reported for them?
1. Clc1ccc(Nc2nnc(OCc3ccncc3)c3ccccc23)cc1
2. Cc1cc(Cc2nnc(Nc3ccc(Cl)cc3)c3ccccc23)ccn1 [Example 44F]
3. CC(C)c1ccc(Nc2nnc(Cc3ccncc3)c3ccccc23)cc1 (as salt: hydrochloride) [Example 47, dihydrochloride]
4. COc1ccc(Nc2nnc(Cc3ccncc3)c3ccccc23)cc1Cl

Out:
1. 139 to 141 °C
2. 158 to 159 °C
3. > 250 °C
4. 195 to 197 °C

In: Give recorded melting point. Clc1ccc(Nc2nnc(Cc3ccncc3)c3cccnc23)cc1
Out: 196 to 197 °C

###

measurement_type: melting point

Some entries whose results are on file:
compound	melting point
C[C@@H](Nc1nnc(Cc2ccncc2)c2ccccc12)c1ccccc1.Cl.Cl	190 °C (dec.)
Fc1ccc(Nc2nnc(Cc3ccncc3)c3ccccc23)cc1Cl	185 to 187 °C
Brc1ccc(Nc2nnc(Cc3ccncc3)c3ccccc23)cc1	201 to 202 °C
COc1cc(Nc2nnc(Cc3ccncc3)c3ccccc23)cc(OC)c1OC	110 to 111 °C

Now, please, on to the next compound.
In: Give recorded melting point. FC(F)(F)Oc1cccc(Nc2nnc(Cc3ccncc3)c3ccccc23)c1 [Example 67H]
Out: 176 to 178 °C

###

# system: Flt-1 VEGF-receptor tyrosine kinase (Homo sapiens)
# Sequence (P17948 827-1158 limits assumed): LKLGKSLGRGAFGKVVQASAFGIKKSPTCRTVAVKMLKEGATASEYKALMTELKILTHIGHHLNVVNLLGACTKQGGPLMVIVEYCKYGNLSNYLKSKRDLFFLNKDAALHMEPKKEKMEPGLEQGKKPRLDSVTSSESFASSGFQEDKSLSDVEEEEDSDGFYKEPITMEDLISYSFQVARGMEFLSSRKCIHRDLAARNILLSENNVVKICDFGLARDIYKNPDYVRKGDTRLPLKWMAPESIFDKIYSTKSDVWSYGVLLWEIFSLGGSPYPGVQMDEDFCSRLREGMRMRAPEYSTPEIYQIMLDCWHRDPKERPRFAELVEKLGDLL
# assay_summary: Test for activity against Flt-1 VEGF-receptor tyrosine kinase
Structures can show the parent of a compound that is named as a salt.
measurement_type: IC50
Write the figure, then the unit, nothing else.

Some entries whose results are on file:
compound	measurement_type	result
Cc1ccc(Nc2nnc(Cc3ccncc3)c3ccccc23)cc1O [Example 67B]	IC50	335 nM
Cc1ccc(Nc2nnc(Cc3ccncc3)c3ccc(N)cc23)cc1 [Example 32D]	IC50	480 nM
CC(=O)c1ccc(Nc2nnc(Cc3ccncc3)c3ccccc23)cc1O	IC50	742 nM
CC(=O)c1cccc(Nc2nnc(Cc3ccncc3)c3ccccc23)c1 [Example 70A]	IC50	1000 nM

Here are 5 compounds. What values of IC50 were reported for them?
1. CCc1ccc(Nc2nnc(Cc3ccncc3)c3ccccc23)cc1 [Example 44A]
2. COc1ccc(Oc2nnc(Cc3ccncc3)c3ccccc23)cc1 [Example 72D]
3. CSc1cccc(Nc2nnc(Cc3ccncc3)c3ccccc23)c1 [Example 67D]
4. Cc1ccc(Nc2nnc(Cc3ccncc3)c3ccccc23)cc1
5. CS(=O)(=O)O.CS(=O)(=O)O.CS(=O)(=O)O.Nc1cccc(Nc2nnc(Cc3ccncc3)c3ccccc23)c1 [Example 20, trimesylate]

Out:
1. 277 nM
2. 593 nM
3. 401 nM
4. 154 nM
5. 500 nM

Here are 5 compounds. What values of IC50 were reported for them?
1. Clc1ccc(Nc2nnc(Cc3ccncc3)c3ncccc23)cc1
2. Clc1ccc(Nc2nnc(Cc3ccncn3)c3ccccc23)cc1
3. Clc1ccc(Nc2nnc(OCc3ccncc3)c3ccccc23)cc1
4. CC(C)c1ccc(Nc2nnc(Cc3ccncc3)c3ccccc23)cc1 [Example 47, dihydrochloride]
5. CCOc1cccc(Nc2nnc(Cc3ccncc3)c3ccccc23)c1 [Example 67F]

Out:
1. 397 nM
2. 2400 nM
3. 195 nM
4. 188 nM
5. 1200 nM

Here are 6 compounds. What values of IC50 were reported for them?
1. c1ccc2c(NC3CCCCC3)nnc(Cc3ccncc3)c2c1
2. CC(C)c1cccc(Nc2nnc(Cc3ccncc3)c3ccccc23)c1 [Example 67Q]
3. Cc1cccc(Nc2nnc(Cc3ccncc3)c3ccccc23)c1
4. Brc1ccc(Nc2nnc(Cc3ccncc3)c3ccccc23)cc1
5. Clc1ccc(Nc2nnc(Cc3ccncc3)c3ccccc23)cc1Cl
6. Cc1cccc(Nc2nnc(Cc3ccncc3)c(C)c2C)c1 [Example 82E]

Out:
16000 nM
328 nM
9070 nM
180 nM
410 nM
2500 nM

Here are 4 compounds. What values of IC50 were reported for them?
1. Clc1ccc(Nc2nnc(Cc3ccncc3)c3cnccc23)cc1
2. Clc1ccc(Nc2nnc(Cc3ccncc3)c3cccnc23)cc1
3. N#Cc1ccc(Nc2nnc(Cc3ccncc3)c3ccccc23)cc1
4. Cc1cc(C)cc(Nc2nnc(Cc3ccncc3)c3ccccc23)c1

Out:
1000 nM
1000 nM
666 nM
349 nM

###

Please go through the items and note down their melting point.

Some entries whose results are on file:
molecule	measurement_type	result
CCCc1ccc(Nc2nnc(Cc3ccncc3)c3ccccc23)cc1 [Example 44B]	melting point	180 to 181 °C
Clc1ccc(Nc2nnc(Cc3ccncc3)c3c2CCCC3)cc1 [Example 44H]	melting point	181 to 183 °C
Clc1ccc(Sc2nnc(Cc3ccncc3)c3ccccc23)cc1 [Example 72E]	melting point	204 to 206 °C
CC(C)(C)c1ccc(Nc2nnc(Cc3ccncc3)c3ccccc23)cc1.Cl.Cl	melting point	196 to 200 °C

Now, please, on to the next molecule.
In: Give recorded melting point. N#Cc1ccc(Nc2nnc(Cc3ccncc3)c3ccccc23)cc1 [Example 24]
Out: 228 to 230 °C

###

# system: Flt-1 VEGF-receptor tyrosine kinase (Homo sapiens)
# assay_summary: Test for activity against Flt-1 VEGF-receptor tyrosine kinase
measurement_type: IC50 (nM)
Give bare numbers, in nM.

Some entries whose results are on file:
molecule	result
Cc1ccc(Nc2nnc(Cc3ccncc3)c3ccccc23)cc1C	345
c1ccc(CNc2nnc(Cc3ccncc3)c3ccccc23)cc1	640
CCCc1ccc(Nc2nnc(Cc3ccncc3)c3ccccc23)cc1 [Example 44B]	234

Here are 2 molecules. What values of IC50 were reported for them?
1. COc1ccc(Nc2nnc(Cc3ccncc3)c3ccccc23)cc1Cl
2. CCc1cccc(Nc2nnc(Cc3ccncc3)c3ccccc23)c1 [Example 67E]

Out:
[515, 440]
